Molecular target: HDAC10-nanoluciferase fusion in HeLa cells (Homo sapiens)
Sequence (Q969S8 whole entry, the tested form may be a part): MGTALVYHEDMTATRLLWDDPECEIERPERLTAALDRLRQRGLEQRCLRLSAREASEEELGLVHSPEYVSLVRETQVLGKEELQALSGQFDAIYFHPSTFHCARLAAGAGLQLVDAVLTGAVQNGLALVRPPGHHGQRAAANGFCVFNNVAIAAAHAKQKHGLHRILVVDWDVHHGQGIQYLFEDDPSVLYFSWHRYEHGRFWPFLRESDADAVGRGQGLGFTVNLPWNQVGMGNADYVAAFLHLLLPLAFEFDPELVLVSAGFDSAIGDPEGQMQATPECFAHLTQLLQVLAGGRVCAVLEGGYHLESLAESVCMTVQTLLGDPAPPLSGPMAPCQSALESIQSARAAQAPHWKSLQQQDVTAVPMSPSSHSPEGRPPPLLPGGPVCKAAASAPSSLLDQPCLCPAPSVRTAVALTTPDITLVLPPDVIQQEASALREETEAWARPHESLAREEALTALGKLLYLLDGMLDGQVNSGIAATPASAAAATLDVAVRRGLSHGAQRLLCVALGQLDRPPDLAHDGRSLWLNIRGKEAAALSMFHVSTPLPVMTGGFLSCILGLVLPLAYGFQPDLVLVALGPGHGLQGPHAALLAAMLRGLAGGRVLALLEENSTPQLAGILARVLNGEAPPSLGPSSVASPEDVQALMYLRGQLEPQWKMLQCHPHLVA
Assay: BRET intracellular target engagement assay, HDAC10
Details: HDAC10 over HDAC6, from BRET
assay metric: HDAC10/6 fold selectivity (BRET) (fold)

Example cases with answers are listed next.
COc1ccc(C(=O)NCCN(C)CCCC(=O)NO)c2ccccc12 | 398
CN(CCCC(=O)NO)CCc1nc2ccccc2[nH]1 | 315
O=C(CCCN(CCC(=O)Nc1ccccc1)Cc1ccccc1)NO | 25

a = CCCCN(CCCC(=O)NO)CCC(=O)Nc1ccccc1
b = CN(CCCC(=O)NO)CCNC(=O)c1cccc2cn[nH]c12
Of the two listed items, which has the higher HDAC10/6 fold selectivity (BRET)? First: a Second: b Answer by stating the label of the chosen item.
b
(b: 423 fold, a: 38 fold)
